- test_details: PK study in mice
- Format: in vivo
- experimental_setup: male, ICR, mouse, plasma, iv, 1 mg/kg, AUC0‒∞, 1 mg/kg i.v., mice
recorded_endpoint: AUC

Entry O=C(Cc1cccc(C(F)(F)F)c1)Nc1cc(Oc2cc3sc(NC(=O)C4CC4)nc3cc2F)ccc1F : reported AUC = ?
1060 ng·h/mL

----------
- test_details: PK study in mice
- Assay type: in vivo
- experimental_setup: male, ICR, mouse, plasma, iv, 1 mg/kg
recorded_endpoint: Vd (L/kg)
Give the value, in units of L/kg, as a plain number.

Entry O=C(Cc1cccc(C(F)(F)F)c1)Nc1cc(Oc2cc3sc(NC(=O)C4CC4)nc3cc2F)ccc1F [Compound 25] : reported Vd = ?
1670

Values from paper PMC8546889
